System: 883617-216-R-J1-PDC complex spheroid viability;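 further: spheroids exposed to compounds for seven days before readout; 100% = DMSO vehicle control viability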
Assay: Anticancer human tumor 883617-216-R-J1-PDC patient-derived bladder carcinoma cell line growth inhibition [POLQ]
Conditions: second compound 0.0316 µM; first compound 0.0316 µM; hits give low values
testReadout: viability, T/C (%)

compound | measureUnit | endpointResult
COc1ccc([C@@H](O)c2cc(-c3ncnc4cc(N5CCOCC5)ccc34)c(F)cc2Cl)nn1 + Cc1cccc(N(C)C(=O)C2C(O)CCN2c2nc(C)cc(C(F)(F)F)c2C#N)c1 | % | 90.4
CC1COCCN1c1cc(C2(S(C)(=N)=O)CC2)nc(-c2ccnc3[nH]ccc23)n1 (stereo not given) + Nc1ccc(C#CCN(C(=O)Cc2ncc(C(F)(F)F)cc2C(F)(F)F)c2ccc(F)cc2)nn1 | % | 110
COc1cccc2c1C(=O)c1c(O)c3c(c(O)c1C2=O)CC(O)(C(=O)CO)CC3OC1CC(N)C(O)C(C)O1 (stereo not given) + Cc1cccc(N(C)C(=O)C2C(O)CCN2c2nc(C)cc(C(F)(F)F)c2C#N)c1 | % | 78
C=CCn1c(=O)c2cnc(Nc3ccc(N4CCN(C)CC4)cc3)nc2n1-c1cccc(C(C)(C)O)n1 + COC1C(OC(N)=O)C(O)C(Oc2ccc3c(O)c(NC(=O)c4ccc(O)c(CC=C(C)C)c4)c(=O)oc3c2C)OC1(C)C | % | 112
C#Cc1c(F)ccc2cc(O)cc(-c3ncc4c(N5CC6CCC(C5)N6)nc(OCC56CCCN5CC(F)C6)nc4c3F)c12 (stereo not given) + Nc1ccc(C#CCN(C(=O)Cc2ncc(C(F)(F)F)cc2C(F)(F)F)c2ccc(F)cc2)nn1 | % | 82
CC[C@@]1(O)C(=O)OCc2c1cc1n(c2=O)Cc2cc3c(CN(C)C)c(O)ccc3nc2-1 + Nc1ccc(C#CCN(C(=O)Cc2ncc(C(F)(F)F)cc2C(F)(F)F)c2ccc(F)cc2)nn1 | % | 84.5
CCc1c2c(nc3ccc(O)cc13)-c1cc3c(c(=O)n1C2)COC(=O)[C@]3(O)CC + Nc1ccc(C#CCN(C(=O)Cc2ncc(C(F)(F)F)cc2C(F)(F)F)c2ccc(F)cc2)nn1 | % | 59.1
CC1COCCN1c1cc(C2(O)CC3CCC(C2)O3)c2cnn(-c3ccn[nH]3)c2n1 (stereo not given) + COC1C(OC(N)=O)C(O)C(Oc2ccc3c(O)c(NC(=O)c4ccc(O)c(CC=C(C)C)c4)c(=O)oc3c2C)OC1(C)C | % | 72.8
COc1cc(C2c3cc4c(cc3C(OC3OC5COC(C)OC5C(O)C3O)C3COC(=O)C23)OCO4)cc(OC)c1O (stereo not given) + Nc1ccc(C#CCN(C(=O)Cc2ncc(C(F)(F)F)cc2C(F)(F)F)c2ccc(F)cc2)nn1 | % | 103
CCCS(=O)(=O)Nc1ccc(F)c(C(=O)c2c[nH]c3ncc(-c4ccc(Cl)cc4)cc23)c1F + COC1C(OC(N)=O)C(O)C(Oc2ccc3c(O)c(NC(=O)c4ccc(O)c(CC=C(C)C)c4)c(=O)oc3c2C)OC1(C)C | % | 90.3
